test: yeast display, Sf9 membrane polyspecificity reagent, FACS + sequencing; frameworks hold sequencing errors
observation type: polyreactivity (PSR sort gate)

seq string | measured result
QVQLVESGGGLVQAGGSLRLSCAASGRTFRHNAMGWYRQAPGKERELVAAISSSGTNTHYADSVKGRFTISRDNAKNTVYLQMNSLKPEDTAVYYCAADRWGARRKQYHENGYWGQGTQVTVSS | high polyreactivity
QVQLVESGGGLVQAGGSLSLSCAASGSTFYFNAMGWYRQAPGKERELVATIRSGDSTYYADSVKGRFTISRDNAKNTVYLQMNRLKPEDTAVYYCAAVSTYFSSTFTEYDYWGQGTQVTVST | low polyreactivity
QVQLVESGGVLVQAGGSLRLSCAASGYINGRYVMGWYRTAPGKETELVAAITSSGGSTYYADSVKGRFTISRDNAKNTVYLQINILSPDDTAVYYCAAPTYGRFLRNDYWGPGTQVTVSS | high polyreactivity
QVQLVESGGGLVQAGGSLRLSCAASGSIFYTYAMGWYRQAPGKERELVAAISSGGSTNYADSVKGRFTISRDNPKNTVYLQMNSLKPEDTAVYYCAAEYTRSFYIYYRFGYWGQGTQVTVSS | high polyreactivity
QVQLVESGGGLVQAGGSLRLSCAASGIIFYNNAMGWYRKAPGKERELVADITSGNTNYADSVKGRFTISRDNAKNTVYLQMNSLKPEDTAVYYCNAEDDYTYDRSFGGYKYDYWGQGTQVTVSS | low polyreactivity

* * *

test: yeast display, Sf9 membrane polyspecificity reagent, FACS + sequencing; frameworks hold sequencing errors

seq string | polyreactivity (PSR sort gate)
QVQLVESGGGLVQEGGSLRLSCAASGGTFRWYTMGWYRQAPGKERELVAAISSTGSTYYADSVKGRFTISRDNAKNTVYLQMNSLKPEDTAVYYCNASYNGKGSWDLDYWGQGTQVTVSS | high polyreactivity
QVQLVESGGGLVQAGGSLRLSCAASGSIIKYYAMGWYRQAPGKEREFVAAITASSSRTYYADSVKGRFTISRDNAKNKVYLQMNSLKPEDTAVYYCAAVGPGRRRDYWGQGTQVTVSS | high polyreactivity

* * *

assay: yeast display, Sf9 membrane polyspecificity reagent, FACS + sequencing; frameworks hold sequencing errors

seq string | polyreactivity (PSR sort gate)
QGQLVESGGGLVQAGGSLRLSCAASGRTFKYYAMGWYRQAPGQERELVAAISYNGGSTFYADSVKGRFTISRDNAKNTVYLQMNSLKPEDTAVYYCAAVYRYRNRRDYDYWGQGTQVTVSS | high polyreactivity
QVQLVESGGGLVQAGGSLRLSCAASGGTFRAYAMGWYRQAPGKEREFVAAITWSGGRTYYADSVKGRFTISRDNANNTVYLQMNSLKPEDTEVYYCATDQGHYYHAEHDYWGQGTKVTVSS | low polyreactivity
QVQLVESGGGLVQAGGSLRLSCAASGFTFYINVMGWYRQATGKERELVAAITSSGTTNYADSVKGRFTISRDNAKNTVYLQMNSLKPEDTAVYYCAKRSYGGTLHYAFDSWGQGTQVTVSS | low polyreactivity
QVQLVASGGGLVHAGASLRLSCAASGRIFTGNVMGWYRQAHWKERELVAAISVSGGRTYYADSVKGRFTISRDYAKNTVYLQMNSLKPVDSAVYYCNARYSRVWYGGDYWGQGTQVTVSS | high polyreactivity
QVQLVESGGGLVQAGGSLRLSCAASGFIIKYYAMGWYRQAPGKERELVAAIDGSSASTYYADSVKGRFTISRDNAKNTVYLQMNSLKPEDTPVYYCAVARLRRGGVQYGYWGQGTQVTVSS | high polyreactivity
QVQLVDSGGGLVQAGGSLRLSCAASGRTFGVYAMGWYRQAPGKERELVAVINRSGGSTYYADSVKGRFTISRDNAKNTVYLQMNSLKPEDTAVYYCAARVTSHMYYWGQGTQVTVSS | high polyreactivity
QVQLVESGGGLVQAGGSLRLSCAASGSIFFGNAMGWYRQAPGKERELVAAISSRGTSTYYADSVKGRFTISRDNAKNTVYLQMNSLKPEDTAVYYCNKRVRTFRGGPLAGYDYWGQGTQVTVSS | high polyreactivity
QVQLVESWGGLVQAGGSLRLSCAASGRIIDRKAMGWYRQAPGKERELVAAISSSGSTNYADSVKGRFTFSRDNAKNTVYLQMISLKPEDTSVYYCAARWRSVLAAGTRPVSFDYWGQGTQVTVSS | low polyreactivity
QVQLVESGGGLVQAGGSLRLSCAASGRTFGYYTMGWYRQAPGKERELVARINYIGSSTYYADSVKGRFTISRDNAKNTVYLHMNSLKPEDTAVYYSNADNARGRSGVRRYYWGQGTQVTVSS | high polyreactivity
QDQLVESGGGLVQAGGSLRLSCAASGFIIIGNAMGWYRQAPGKERELVAAISRRGGSTYYADSVKGRFTISRDHAKNTVYLQMNSLKPEDTALYYCNALTRRQKGGEGGGYWGQGTQVTVSS | high polyreactivity
QVQLVESGGGLVQAGGSLRLSCAASGSTFVLNAMGWDRQAPGKERELVAAITRDGRTYYADSVKGRFTISRDNAKNTVYLQMNSLKPEDTAVYYCARPARYSYGDGYWGQGTQVTVSS | low polyreactivity
QVQLVESGGGLVQAGGSLRLSCAASGFIFGANTMGWYRQAPGKERELVATISWSGGSTYYADSVKGRFTISRDNAKNTVYLQMNSLKPEDTAVYYCAAPGVTYGFRSDYWGQGTQVTVSS | low polyreactivity
QVQLVESGGGLVQAGGSLRLSCAASGRTYNVMGWYRQAPGKERYLVAAITWGGGSTHYADSVKGRFTISRDNAKNTVYLQMISLKPEDTAVYYCAADLLYKSTRVDYWGQGTQVTVSS | low polyreactivity
QVQVEESGGGVVQAGGSLRLSCAAYGRIFFRNAMGWYRPAPGKERELVAVINTGGSTNYADSVKGRFTISRDNAKNTVYLQMNRLKAEDTAVYYCAVDRASRRTYNQYGYWGQGTQVSVSS | high polyreactivity
QVQLVESGGGLVQAGGSLRLSCAASGFIYRKNAMGWYRQAPGKERELVATITKSGDTTYYADSVKGRFTISRDNAKNTVYLQMNSLKPEDTAVYYCAAPLYYIGSWDYYVRYIYDYWGQGTQVTVSS | low polyreactivity
QVQLEESGGGLVQAGGSLRLSCAASGRTFWLYAMGRYRQAPGKEREFVASISSSGDSTYYADSVKGRFTISRDNAKNTVYLQMNSLKPEDTAVYDCAARPSRRYLRNGLDYWGQGTQVTVSS | high polyreactivity
QVQLVESGGGLVQAGGSLRLSCAASGRIVADYAMGWYRQAPGKERELVAAIRGSGGDTYYADSVKGRFTISRDNAKNTDYLQMNSLKPEDTAVYYCNAVDTYDLDNDYWGQGTQVTVSS | low polyreactivity
QVQLVESGGGLVQAGGSLRLICAASGSIFYGNTMGWYRQARGKERELVAAISSGGSTYYADSVKGRFTISRDNAKNSVYLQMNSLKPEDTAVYYCAREDYSHSFLTYDYWGQGSQVTVSS | low polyreactivity
QVQLVESGGGLVQAGGSLRLSCAASGRIYFYNALGWYRQAPGKERELVATITRSGGRTYYADSVKGRFTISRDNAKNTVYLQMNSLKPEDTAVYYCAAYPTNNLYPNLEYWGQGTQVTVSS | high polyreactivity
QLQLVESGGGLVQAGGSLRLSCAASGNIFNYYAMGWYRQATGKERELVAAIRSGARTSYADSVKGRFTISRDNAKNTVYLQMNSLKPEDTAVYYCAASRFRWVQRDDYWGQGTQVTVSS | high polyreactivity
QVQLVESGGGLVQAGGSLRLSCAASGRIFGTYAMGWYRQAPGKERELFAAITLSDGSTYYADSVKGRFTISRDNAKNTVYLEMNTLKPEDTAVYYCAAVVDRFHPGLYEYWGQGTQVTVSS | low polyreactivity

* * *

assay: yeast display, Sf9 membrane polyspecificity reagent, FACS + sequencing; frameworks hold sequencing errors

seq string | polyreactivity (PSR sort gate)
QVQLVESGGGLVQAGGSLRLSCAASGFTFYNYAMGWYRQAPGKERELVAVISRSGGRTKYADSVKGRFTISRDNAKNTVYLQMNSLKPEDTAVYYCAARPSPGYYAYRYAPAIHYDYWGQGTQVTVSS | high polyreactivity
QVQHVESGRGLVQAGGSLRLSCSASVRIFYNYAMGWYRQAPGKERELVAAISGSGGSTYYADSVKGRFTISRDNAKNSVYLQMNSQKPEDTAVYYCNKAVRRYPRFDYWGQGTQVTVSS | low polyreactivity
QDQLVDTVGGLVQAGGSLRLSCAASGRTFWFYAMGWYRQAPGKESELVASITTGGGTNYADSVKGRFTISRDNAKITVYLQMNSLKPEDTAVYYCAVKRYHFGSGVDWYGGSSYGYWGQGTQVTVSS | high polyreactivity
QVQLVESGGGLVQAGGSLRLSCAASGRIFGVYVMGWYRQAPGKETELVAAISWSGSHTYYADSVKGRFTISRDNAKNTVYLQMNSLKPEDTAVYYCNADSYPDYTGPGLDWYDYWGQGTQVTVSS | low polyreactivity
QVQLVESGGGLVQAGGSLRLSCAASGRTFGYYAMGWYRQAPGKERELVAAITWIGGSTYADSVKGRFTISRDNAKNTVYLQMNSLKPEDTAVYYCAADPSVWSDYYYWGQGTQVTVSS | high polyreactivity
QVQLVESGGGLVQAGGSLRLSCAASGFTFYAYTMGWYRQAPGKERELVAAIRTGSSTYYADSVKGRFTISRDNAKITVYLQMNSLKPEDTAVYYCDAPRWRRPYRYDYWGQGTQVTVSS | high polyreactivity
QGQLVESGGGLVQAVGSLRLSCAASGITLRIYAMGWYRQAPGKEREMVAGITSGGSTNYADSVKGRFTLSRDNAKNTVYLQMNSLKPEDTAVYYCAARQVRTSKLHMGYWGQGTQVTVSS | low polyreactivity
QVQLVESGGGLVQAGGSLRLSCAASGSIFHGYGMGWYRPAPGKERELVASITWIGGDTYYADSVKGRFTISRDNAKNTVYLQMNSLKPEDTAVYYCNAEWVVTYIYDYWGQGTQVTVSS | low polyreactivity
QVQLVESGGGLVQAGGSLRLSCAASGIIFYVNDMGWYRQAPGKERELVADISGGTSTNYADSVKGRFTISRDNAKNTVYLQMNSLKPEDTAVYYCATAFIVPFPGSDYWGQGTQVTVSS | low polyreactivity
QVQLVESGGGLVQAGGSLRLSCAASGRIFISNAKGWYRQAPGKERELVAAITWIGDRTYYADSVKGRFTISRDNAKNTVYLQMNSLKPEDTAVYYCNRVTSRVSGRYSYDYWGQGTQVTVSS | high polyreactivity
QVQLVESGGGLVQAGGSLRLSCAASGRTFGKYAMGWYRQAPGKEREFVAAISRSGGNTYYADSVKGRFTISRDNAKNTVYLQMNSLKPEDTAVYYCAAKGFFYYWGQGTQVTVSS | high polyreactivity
QVQLVESVGGLVQAGGSLRLSCAASVRTCRSNAMGWYRKAPGKEMEFVAAISISGTRTNYADSVKGRFTISRDNAKITVYLQMNSLKPEDTAVYYCARRYQIYDFFYHDLYDYWGQGTQVTVSS | low polyreactivity
QVQLVESGGGLVQAGGSLRLSCAASGSTFQQYAMGWYRQAPGKEREFVARISYGGGSTYYADSVKGRFTISRDNAKNTVYLQMNSLKPEDTAVYYCNAVRKGYYRWVFQNRYYYWGQGTQVTVSS | high polyreactivity
QVQLVESGGGLVQAGGSLRLTCAASGITLLYNAMGWYRQAPGKESELVAGITGRGGSTYYADSVKGRFTISRDNAKNTVYLQMNSLKPEDTAVYYCAATTDYRYVGRIVIRDEHWGQGTQVTVSS | low polyreactivity
QVQLVESGGGLVQAGGSLRLSCAASGSIFPGYAMGWYRQAPGKERELVATIRWSSGSRTNYADSVKGRFTISRDNAKNTVYLQMNSLKPEDTAVYYCAAGSRRYKYDYWGQGTQVTVSS | high polyreactivity
QVQLVESGGGLVQAGGSLRLSCAASGSIFKWYAMGWYRQAPGKERELVAAITRGGSTNYADSVKGRFTISRDNAKNTVYLQMNSLKPEDTAVYYCNAVYTYRSGFGYWGQGTQVTVSS | low polyreactivity
QVQLVESGGGLVQAGGSLRLSCAASGITFKWNALGWYRQAPGKERELVAVISSDGRTYYADSVKWRFTISRDKAKNTVYLQMNSLKPEDTAVYYCNADRSVIHRGYIWQPGRNDYWGQGTQVTVSS | low polyreactivity
QVQLVESGGGLVQAGGSLRLICAASGSTFRNYAMGWYRQAPGKEREFVAAITWSGGRTYYADSVKGRFTISRDNAKNTVYLQMNSLKPEDTAVYYCAARYRRGYDYWGQGTQVTVSS | high polyreactivity
QVQLVESGGGLVQAGGSLRLSCAASGFIFRYNAMGWYRQAPGKERELVAAISSSGTTNYADSVKGRFTISRDNAKNTVYLQMNSLKPEDTAVYYCAADRRDRSPYYYWGQGTQVTVSS | high polyreactivity
QVQLVESGGGLFQAGGSLSLSCAASGRIYNPNALGWYRQAPGKERELVAAITSGDSTNYADSVKGRFTISRDNAKNTVYLEMNSLKPEDTAVYYCAADWTYPYNSWGQGTQVTVSS | low polyreactivity
QVQLVESGGGLVQAGGRLRLSCADSGSTFWSYAIGWYRQSPGKEREFVAAISSSDDSTYYADSVKGRFTISRDNAKNTVYLQMNSLKPEDTAVYYCATSWYIYPFDYWGQGTQVTVSS | low polyreactivity
